Biological target: T1, human MSLN-R1-his protein (human, UniProt Q13421 296-390)
T1 construct: Self-made in HEK293E cells; also called human MSLN-R1 protein; hMSLN-R1-his; not shown: His tag
T1 chain: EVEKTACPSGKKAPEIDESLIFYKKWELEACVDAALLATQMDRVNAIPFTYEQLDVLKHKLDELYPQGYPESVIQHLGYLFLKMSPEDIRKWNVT
Assay: ELISA on coated antigen, antibody 1 nM
RECORDED METRIC: OD450

• S009-F3.16.1 (antibody, human IgG1, kappa, V domains shown, Human-murine chimeric antibody: murine VH/VL on human IgG1 heavy and kappa light constant regions) VH: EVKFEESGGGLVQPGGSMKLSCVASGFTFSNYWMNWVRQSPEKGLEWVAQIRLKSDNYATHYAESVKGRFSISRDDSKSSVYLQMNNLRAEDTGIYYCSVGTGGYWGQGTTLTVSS VL: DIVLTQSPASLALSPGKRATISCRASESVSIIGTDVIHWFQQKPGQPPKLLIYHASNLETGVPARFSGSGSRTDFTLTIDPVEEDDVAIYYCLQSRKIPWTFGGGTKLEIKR = 0.06 OD450
• S009-F3.38.10 (antibody, human IgG1, kappa, V domains shown, Human-murine chimeric antibody: murine VH/VL on human IgG1 heavy and kappa light constant regions) VH: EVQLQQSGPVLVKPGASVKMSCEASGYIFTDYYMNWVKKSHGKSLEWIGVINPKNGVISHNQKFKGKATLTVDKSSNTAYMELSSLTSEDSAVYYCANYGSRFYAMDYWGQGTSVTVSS VL: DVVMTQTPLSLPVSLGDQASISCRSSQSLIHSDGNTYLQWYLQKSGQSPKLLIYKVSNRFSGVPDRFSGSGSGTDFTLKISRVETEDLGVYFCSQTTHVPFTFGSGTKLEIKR = 0.06 OD450
• S009-F3.45.21 (antibody, human IgG1, kappa, V domains shown, Human-murine chimeric antibody: murine VH/VL on human IgG1 heavy and kappa light constant regions) VH: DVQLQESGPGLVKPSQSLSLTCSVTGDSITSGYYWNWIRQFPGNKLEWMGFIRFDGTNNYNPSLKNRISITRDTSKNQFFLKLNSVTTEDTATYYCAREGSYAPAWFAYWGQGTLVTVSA VL: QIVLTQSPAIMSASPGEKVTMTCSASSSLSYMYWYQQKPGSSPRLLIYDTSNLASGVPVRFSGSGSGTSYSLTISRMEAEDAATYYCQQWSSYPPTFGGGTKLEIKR = 0.06 OD450

The values you see were collected from patent US20250250357A1.
